- tested_on: Alpha-1A adrenergic receptor (Homo sapiens)
- Sequence (P35348 whole entry): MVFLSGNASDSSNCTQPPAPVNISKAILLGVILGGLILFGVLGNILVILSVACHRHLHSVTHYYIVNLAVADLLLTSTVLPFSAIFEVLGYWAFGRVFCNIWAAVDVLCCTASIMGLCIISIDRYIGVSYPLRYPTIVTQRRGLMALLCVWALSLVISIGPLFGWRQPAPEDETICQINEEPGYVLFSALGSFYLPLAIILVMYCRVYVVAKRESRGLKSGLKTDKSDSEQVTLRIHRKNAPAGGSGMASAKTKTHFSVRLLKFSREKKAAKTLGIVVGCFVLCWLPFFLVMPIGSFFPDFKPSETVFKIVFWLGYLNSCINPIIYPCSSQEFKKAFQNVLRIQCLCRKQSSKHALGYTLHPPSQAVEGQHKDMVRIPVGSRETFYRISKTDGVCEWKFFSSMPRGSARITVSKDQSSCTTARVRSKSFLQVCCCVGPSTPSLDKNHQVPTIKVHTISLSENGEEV
- Format: functional, cell-based
Measured AC50 by item
Reply numerically in µM, unit not repeated.

[[record]]
molecule = "CCCN(CCC)CCc1cccc2c1CC(=O)N2"
observation_type = "AC50"
numeric_readout = 6.93


Data request, read-out AC50, for CN1C[C@H](C(=O)N[C@]2(C)O[C@@]3(O)[C@@H]4CCCN4C(=O)[C@H](Cc4ccccc4)N3C2=O)C[C@@H]2c3cccc4[nH]cc(c34)C[C@H]21 [DIHYDROERGOTAMINE]
1.7

If you can, please state the reported AC50 value of Cc1cc2nc3c(=O)[nH]c(=O)nc-3n(C[C@H](O)[C@H](O)[C@H](O)COP(=O)(O)O)c2cc1C [RIBOFLAVIN 5'-PHOSPHATE] .
12

Reference source for all entries: ChEMBL document CHEMBL5291721
